TESTED_TARGET: T1, Human CD19-his protein (human, UniProt P15391 20-291)
T1 construct: bought protein; also called human CD19 protein; recombinant human CD19-His; not shown: His tag
T1 sequence (looked up): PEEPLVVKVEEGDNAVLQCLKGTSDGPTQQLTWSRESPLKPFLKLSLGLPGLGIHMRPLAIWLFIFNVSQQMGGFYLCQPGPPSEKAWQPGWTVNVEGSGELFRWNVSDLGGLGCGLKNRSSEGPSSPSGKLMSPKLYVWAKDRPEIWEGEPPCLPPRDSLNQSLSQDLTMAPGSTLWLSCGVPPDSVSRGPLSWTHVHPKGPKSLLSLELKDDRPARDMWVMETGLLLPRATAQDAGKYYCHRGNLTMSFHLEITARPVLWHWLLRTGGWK
PROTOCOL_TEXT: ELISA, antibody at 0.0001 nM
ASSAY_METRIC: OD450

Recorded OD450 (binder F4.276.12 (antibody, human IgG1, V domains shown, human-murine chimeric antibody, human IgG1) VH: EIQLQQSGPELVKPGASVKVSCKASGYAFSAYNMYWVKQSHGKSLEWIGYIDPYNGGTNYNQKFKGKATLTVDKSSSTAYMHLNSLTSEDSAVYYCARDGYEVTYWGQGTLVTVSA VL: QIVLTQSPALMSASLGEEITLTCSASSSVTYMHWSQQKSGTSPRLLIYSTSNLASGVPSRFSGSGSGTFYSLTISSVEAEDAADYYCHQWSSYPWTFGGGTKLEIK ): 0.05

Recorded OD450 (binder F3.113.16 (antibody, human IgG1, V domains shown, human-murine chimeric antibody, human IgG1) VH: QVQLQQPGAELVKPGASVKLSCKASGYTFTNYWMQWVKQRPGQGLEWIGEIDPSDSYINYNQKFKGKATLTADTSSSTAYMQLSSLTYEDSAVYYCARPVTVPWYFDVWGTGTTVTVSS VL: EIVLTQSPTTMAASPGEKITITCSATSSISSNYLHWYQQKPGFSPKLLIYRTSNLASGVPARFSGSGSGTSYSLTIGTMEAEDVATYYCQQGSAIPRIFTFGSGTKLEIK ): 0.05

Recorded OD450 (binder F5.10.6 (antibody, human IgG1, V domains shown, human-murine chimeric antibody, human IgG1) VH: DVQLQESGPGLVKPSQSLSLTCSVTDYSITSGYYWTWIRQFPGNKLEWMGYISYDGSTNYNPSLKNRFSITRDTSKNQFFLKLNSVIIEDTATYYCARDRMSTTWYFDVWGTGTTVTVSS VL: DIVLTQSPASLAVSLGQRATISCRASESVDNYGISFMHWYQQKPGQPPKLLIYRASKTESGIPARFSGSGSRTDFTLTINPVETDDVATYYCQQSNKYPRTFGGGTKVEIK ): 0.05
